PROTOCOL NOTES: Inhibition of PHA-stimulated IL2 secretion in human Jurkat T cells preincubated for 10 mins followed by PHA addition and measured after 20 to 24 hrs by ELISA
The molecules listed here are annotated with their pIC50.
On this scale, pIC50 is minus log10 of a concentration expressed in M (mol/L).

For orientation, consider the following solved cases.
>  <COMPOUND STRUCTURE STRING>
Cc1ccc(C2=NOC(C)(C)C2=O)cc1-c1cnc(NC(=O)c2c(F)cncc2F)cn1

>  <pIC50>
7.03

$$$$
>  <COMPOUND STRUCTURE STRING>
CCn1nc(-c2ccc(C)c(-c3ccc(NC(=O)c4c(F)cccc4F)cc3)c2)oc1=O

>  <pIC50>
7.11

$$$$
>  <COMPOUND STRUCTURE STRING>
Cc1ccc(C2=NOC(C)(C)C2)cc1-c1cnc(NC(=O)c2c(F)cccc2F)cn1

>  <pIC50>
6.48

$$$$
>  <COMPOUND STRUCTURE STRING>
Cc1ccc(C2=NOC(C)(C)C2=O)cc1-c1ccc(NC(=O)c2c(F)cccc2F)cc1

>  <pIC50>
7.16

$$$$

Query :: May I ask what pIC50 has been recorded for Cc1ccc(C2=NOC(C)(C)C2=O)cc1-c1cnc(NC(=O)c2c(F)cccc2Cl)cn1 ?
Result :: 7.19

Query :: Let us now turn to Cc1ccc(-c2nn(C)c(=O)o2)cc1-c1ccc(NC(=O)c2c(F)cccc2F)cc1
Result :: 7.47

Query :: Let us now turn to Cc1ccc(C2=NOC(C)(C)C2=O)cc1-c1ccc(NC(=O)c2c(F)cccc2F)nc1
Result :: 6.75

Query :: Let us now turn to Cc1ccc(-c2nn(C)c(=O)o2)cc1-c1cnc(NC(=O)c2c(F)cccc2F)cn1
Result :: 7.19

Query :: Let us now turn to Cc1ccc(C2=NOC(C)(C)C2=O)cc1-c1cnc(C(=O)Nc2c(F)cccc2F)cn1
Result :: 6.82

Query :: Let us now turn to Cc1ccc(C2=NOC(C)(C)C2=O)cc1-c1cnc(NC(=O)c2ccccc2Cl)cn1
Result :: 6.77
